target: Cytochrome P450 3A4 (Homo sapiens); assay: Inhibition of human recombinant CYP3A4 in presence of reduced glutathione; type: ADME; conditions: recombinant enzyme; also: test concentration or dose not given here
Sequence (P08684 whole entry): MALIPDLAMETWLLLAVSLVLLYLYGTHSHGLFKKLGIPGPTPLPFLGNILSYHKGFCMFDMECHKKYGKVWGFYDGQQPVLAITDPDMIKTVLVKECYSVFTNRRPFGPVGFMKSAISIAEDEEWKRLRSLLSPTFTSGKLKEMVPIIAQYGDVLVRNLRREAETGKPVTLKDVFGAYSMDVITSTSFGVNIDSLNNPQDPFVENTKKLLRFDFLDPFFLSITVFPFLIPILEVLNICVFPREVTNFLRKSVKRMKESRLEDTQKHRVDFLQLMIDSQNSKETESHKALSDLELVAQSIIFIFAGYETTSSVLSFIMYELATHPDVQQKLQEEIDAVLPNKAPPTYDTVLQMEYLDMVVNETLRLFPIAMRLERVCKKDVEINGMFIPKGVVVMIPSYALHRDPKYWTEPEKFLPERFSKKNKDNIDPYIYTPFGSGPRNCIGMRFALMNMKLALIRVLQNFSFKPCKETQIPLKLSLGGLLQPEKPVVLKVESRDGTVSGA
parameter: Activity

Look over these answered cases.
[[record]]
moleculesmiles = "O=C1/C(=C/c2ccc(C(F)(F)F)cc2)CC/C1=C\\c1ccc(C(F)(F)F)cc1"
parameter = "Activity"
result = "Not Active"

[[record]]
moleculesmiles = "CC(C)(C)c1ccc(/C=C/C(=O)/C=C/c2ccc(C(C)(C)C)cc2)cc1"
parameter = "Activity"
result = "Not Active"

[[record]]
moleculesmiles = "Cc1ccc(/C=C/C(=O)/C=C/c2ccc(C)cc2)cc1"
parameter = "Activity"
result = "Not Active"

[[record]]
moleculesmiles = "O=C1/C(=C/c2ccccc2)CCC/C1=C\\c1ccccc1"
parameter = "Activity"
result = "Not Active"


Query: Recorded Activity for `O=C1/C(=C/c2ccc(Cl)c(Cl)c2)CC/C1=C\c1ccc(Cl)c(Cl)c1` , please?
Result: Not Active

Query: Recorded Activity for `COc1cc(/C=C2\CC/C(=C\c3ccc(O)c(OC)c3)C2=O)ccc1O` , please?
Result: Not Active

Query: Recorded Activity for `Cc1cc(/C=C2\CCC/C(=C\c3cc(C)c(O)c(C)c3)C2=O)cc(C)c1O` , please?
Result: Not Active

Query: Recorded Activity for `CN(C)c1ccc(/C=C2\CCC/C(=C\c3ccc(N(C)C)cc3)C2=O)cc1` , please?
Result: Not Active

Query: Recorded Activity for `O=C(/C=C/c1cccc(Cl)c1)/C=C/c1cccc(Cl)c1` , please?
Result: Not Active

Query: Recorded Activity for `O=C1/C(=C/c2ccccc2)CC/C1=C\c1ccccc1` , please?
Result: Not Active

Query: Recorded Activity for `COc1cc(/C=C/C(=O)/C=C/c2ccc(O)c(OC)c2)ccc1O` , please?
Result: Not Active

Query: Recorded Activity for `COc1ccc(/C=C2\CCC/C(=C\c3ccc(OC)cc3)C2=O)cc1` , please?
Result: Not Active
